- Tested on: CCRF-CEM
- ASSAY_METHOD_TEXT: In vitro growth inhibitory effect in human T-cell acute leukemia cells CCRF-CEM
- Format: functional, cell-based
REPORTED_PROPERTY: IC50 (µM)
Field: numeric (µM). Do not append units.

Worked set:
{"columns": ["SMILES_ENTRY", "IC50 (µM)"],
 "data": [
  ["CCCCCCCCCCCCC/C=C/[C@@H](O)[C@H](CO)NC(C)=O", 31.6],
  ["CCCCCCCCCCCCCCc1c(O)nc(O)nc1CC", 7.9]
]}

Okay, next one:
response.value for CCCCCCCCCCCCCCc1c(O)nc(S)nc1CC (field: IC50) = 1.7
